Reference for the values: paper PMC10397247

targetOfAssay: T1, 4H1845-AA
T1 chain: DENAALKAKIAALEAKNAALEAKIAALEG
experiment: two-hybrid library CCmax;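 further: natural log of median RNA to DNA barcode read ratio; higher means stronger binding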
condition: mean of both orientations
Kindly return YES if reported interaction score is no lower than -1; return NO if it is lower.

Lookup: Reported interaction score reaches at least -1 for DENAALEAKIAALKAEIAALEAKNAALEG [4H1351-AA] ?
Found: NO

Lookup: What about this binder? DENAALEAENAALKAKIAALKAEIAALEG [4H1257-AA]
Found: NO

Lookup: What about this binder? DENAALKAEIAALKAENAALKAKIAALEG [4H1629-AA]
Found: NO

Lookup: What about this binder? DEIAALEAEIAALKAKNAALKAENAALEG [4H123-AA]
Found: NO

Lookup: What about this binder? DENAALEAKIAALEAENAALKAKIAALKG [4H1310-AA]
Found: YES

Lookup: What about this binder? DENAALEAKNAALEAKIAALEAKIAALKG [4H1446-AA]
Found: NO

Lookup: What about this binder? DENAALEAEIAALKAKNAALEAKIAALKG [4H1142-AA]
Found: YES
